METHOD: Metabolic stability in CD-1 mouse liver microsomes assessed as parent compound remaining after 120 mins by UPLC-MS analysis
Assay type: ADME, microsome
CONDITION_PARAMETERS: 2 h
RESULT_TYPE: Stability
# output: number + unit

Some solved cases for reference:
[[record]]
molecule = "COc1ccccc1N1CCN(CC(O)CN2C(=O)NC(C)(c3cccc4ccccc34)C2=O)CC1 (centres undefined)"
reading = "40%"

[[record]]
molecule = "CC1(c2ccc(F)cc2)NC(=O)N(CC(O)CN2CCN(c3cccc4ccccc34)CC2)C1=O (centres undefined)"
reading = "65%"

[[record]]
molecule = "COc1ccccc1N1CCN(CC(O)CN2C(=O)NC(C)(c3ccc4ccccc4c3)C2=O)CC1 (centres undefined)"
reading = "70%"


# next molecule below
Would you kindly share the measured Stability for CC1(c2ccc(F)cc2)NC(=O)N(CC(O)CN2CCN(C(c3ccccc3)c3ccccc3)CC2)C1=O (centres undefined) ?
20%
